Reference for the values: the DeepSol protein solubility set

# Assay Summary: soluble on expression in E. coli; label from the status in PepcDB or PDB records
Reported Endpoint: soluble on expression in E. coli

Looking for the measured soluble on expression in E. coli of MSSIQGYKMKEYSMPTKRYCQTLSLKNNPILIEEYRKIHSEEKAWPEIRAGIRAVGILEMEIYILGSQLFMIIETPLDFDWEIAMDKLSNLPRQAEWEKYVSKFQDCPYLSSSAEKWKLMERMFYLYED , can you help? not soluble

Looking for the measured soluble on expression in E. coli of MTGVGTPSPSLEWRRRVMSWTDERVSTLKKLWLDGLSASQIAKQLGGVTRNAVIGKVHRLGLSGRAAPSQPARPAFKAPRPARPAAQAMPSAPRRVTPVEAPTSVPVAAAPAPLPAFRHEEPGSATVLTLGAHMCKWPIGDPSSEGFTFCGRRSSEGPYCVEHARVAYQPQQTKKKSGGAELARSLRRYILEHHHHHH , can you help? not soluble

Looking for the measured soluble on expression in E. coli of MKIGFIGAGKMAQALARGLINSGRITADNIIASSPKRDEVFLDQCKALGLNTTHDNAEVVQKSDVVFLAVKPVHVSKVASEIAPALSKEHLVVSIALGITIRNIESLLPTKSRVVRVMPNTPSVVRAGASAFAMGSACRDGDAETVEKLLSTVGFAVEVPEIHIDPVTGLSGSGPSYMFAVIEGLADGGVKVGLPRDLALKLAAYTLLGAAKMVLETGIHPAQLKDDVQSPAGSSVYGMHKLESGGLKGVLMDAVEAATNRSRATGDKALPRDFRNTEM , can you help? not soluble

Looking for the measured soluble on expression in E. coli of MGSDKIHHHHHHMEQTGYGEHIAHTVRNVPYETAIQTEDIAGELAKKFALPYNHAKTITNVKLKRMADKGEIERLQKGIYCHVKQTFFGKVTPTADQVLLKTLMVQNGAKIGYESGASLLNKLGLTTLIPRDIEITTNRYGAKLPEGCHIKLRKPPMPVTDENWKYLQFIDVLMYLPDAHTDAEKPEVLLRQHAKEQQLDYLTLIFTARKYYPQKIVLPLIDLLMEVENETASR , can you help? not soluble
